- Experimental Target: Dual specificity mitogen-activated protein kinase kinase 1 (Homo sapiens) (UniProt Q02750);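 further: reported value is a mean percent inhibition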
- Sequence (Q02750 whole entry): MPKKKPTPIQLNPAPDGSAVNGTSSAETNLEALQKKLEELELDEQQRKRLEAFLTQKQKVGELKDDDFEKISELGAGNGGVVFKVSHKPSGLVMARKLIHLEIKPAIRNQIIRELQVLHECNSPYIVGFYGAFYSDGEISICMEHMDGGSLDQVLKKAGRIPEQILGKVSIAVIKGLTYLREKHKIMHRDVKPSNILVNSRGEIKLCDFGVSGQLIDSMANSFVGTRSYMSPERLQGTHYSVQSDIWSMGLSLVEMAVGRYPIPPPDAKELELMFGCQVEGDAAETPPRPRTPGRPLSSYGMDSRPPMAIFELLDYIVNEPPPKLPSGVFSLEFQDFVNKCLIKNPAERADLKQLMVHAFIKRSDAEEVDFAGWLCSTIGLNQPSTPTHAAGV
- Cond: at 0.1 µM
Each record here notes measured inhibition.
Value expressed in %; do not type the unit.

Solved cases (5 shown):
Data request: If you can, please state the reported inhibition value of COc1cc2ncn(-c3cc(OCc4cccs4)c(C(N)=O)s3)c2cc1OC .
Data returned: 3.5

Data request: // query: CCN(CC)Cc1ccc(Nc2nccc(-c3cnn4ncccc34)n2)cc1
Data returned: 3.09

Data request: // query: COc1cccc(-n2cnc3c(N/N=C/c4ccncc4)ncnc32)c1
Data returned: -0.13

Data request: // query: COc1cc(Nc2ncc3c(C)nc(-c4cccc(C(F)(F)F)c4)n3n2)cc(OC)c1OC
Data returned: 4.45

Data request: // query: O=C1NC(=O)C(c2cccc(Cl)c2)=C1Nc1ccc(Cl)c(C(=O)O)c1
Data returned: 5.3

Now turn to the next molecule.
Data request: If you can, please state the reported inhibition value of COc1ccc(-c2ccc3c(NC(=O)C4CC4)n[nH]c3n2)cc1 .
Data returned: 2.82

###

- Experimental Target: Tyrosine-protein kinase Mer (Homo sapiens) (UniProt Q12866);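 further: values are mean inhibition of human MER kinase, from the GSK PKIS profiling panel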
- Sequence (Q12866 whole entry): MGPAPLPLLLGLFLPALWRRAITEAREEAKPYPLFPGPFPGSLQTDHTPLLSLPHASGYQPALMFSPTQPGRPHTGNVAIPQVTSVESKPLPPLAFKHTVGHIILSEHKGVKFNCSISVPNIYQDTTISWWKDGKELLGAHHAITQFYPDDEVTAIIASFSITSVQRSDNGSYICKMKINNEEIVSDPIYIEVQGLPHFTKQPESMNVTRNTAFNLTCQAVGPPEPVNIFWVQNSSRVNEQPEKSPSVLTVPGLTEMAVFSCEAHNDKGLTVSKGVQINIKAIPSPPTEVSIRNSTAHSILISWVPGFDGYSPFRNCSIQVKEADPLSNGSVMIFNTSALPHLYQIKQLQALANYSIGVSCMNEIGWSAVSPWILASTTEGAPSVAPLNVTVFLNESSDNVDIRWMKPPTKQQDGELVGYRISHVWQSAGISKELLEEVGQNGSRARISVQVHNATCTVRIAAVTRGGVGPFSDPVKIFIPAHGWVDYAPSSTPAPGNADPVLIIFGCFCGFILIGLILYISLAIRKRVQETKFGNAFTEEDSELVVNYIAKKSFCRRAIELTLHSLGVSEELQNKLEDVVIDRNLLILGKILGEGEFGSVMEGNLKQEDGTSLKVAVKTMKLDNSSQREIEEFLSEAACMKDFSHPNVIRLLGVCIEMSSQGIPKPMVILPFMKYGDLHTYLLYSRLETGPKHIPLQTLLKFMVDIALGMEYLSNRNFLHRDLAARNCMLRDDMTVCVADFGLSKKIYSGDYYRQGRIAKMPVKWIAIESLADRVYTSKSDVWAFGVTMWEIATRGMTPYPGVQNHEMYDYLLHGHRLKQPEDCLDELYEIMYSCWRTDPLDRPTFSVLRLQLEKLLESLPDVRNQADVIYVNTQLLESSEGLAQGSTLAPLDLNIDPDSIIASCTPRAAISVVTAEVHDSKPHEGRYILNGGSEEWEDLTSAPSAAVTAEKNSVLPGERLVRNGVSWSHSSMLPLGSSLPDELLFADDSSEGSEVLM
- Cond: at 1 µM
Please note: True applies when inhibition is 4% or greater, and False applies otherwise.

The examples below pair each entry with its known result.
Data request: Can COc1cc(Nc2ncc3c(C)nc(-c4cccc(Oc5ccccc5)c4)n3n2)cc(OC)c1OC be said to have inhibition at or above 4%?
Data returned: False

Data request: // query: NC(=O)c1cc(-c2ccncc2)cc(-c2ccccc2)c1N
Data returned: False

Data request: // query: NCc1ccc(-n2c(-c3nonc3N)nc3cnccc32)cc1
Data returned: True

Data request: // query: COc1cc(C)c(N(C)C(=O)CN(C)C)cc1Nc1nc(Nc2cccc(F)c2C(N)=O)c2cc[nH]c2n1
Data returned: False

Data request: // query: C[C@@H](Oc1cc(-n2cnc3ccc(OC4CCN(C)CC4)cc32)sc1C(N)=O)c1ccccc1Cl
Data returned: True

Data request: // query: Cc1nnc(-c2ccc(C)c(-c3ccc(C(=O)NCc4ccc(Cl)cc4)cc3)c2)o1
Data returned: False

Data request: // query: COC(=O)Nc1nc2ccc(Sc3ccc(NC(=O)Nc4cc(C(F)(F)F)ccc4F)cc3)cc2[nH]1
Data returned: False

Data request: // query: CN(C)c1ccc2c(c1)/C(=C/Nc1ccc(S(N)(=O)=O)cc1)C(=O)N2
Data returned: True

Others:
Data request: Can COc1ccc2cc(-c3c(-c4ccncc4)nc(-c4ccc(S(C)(=O)=O)cc4C)n3C)ccc2c1 be said to have inhibition at or above 4%?
Data returned: True

Data request: // query: O=C1Nc2ccccc2/C1=C/Nc1ccc(-n2cncn2)cc1
Data returned: True

Data request: // query: O=C(NCC1CC1)c1ccc(-c2cccc(C(=O)NC3CC3)c2)cc1
Data returned: False

Data request: // query: c1ccc(-c2n[nH]cc2-c2ccnc(-c3ccc(OCCN4CCOCC4)cc3)c2)nc1
Data returned: True

Data request: // query: COc1ccc2cc(-c3c(-c4ccncc4)nc(-c4ccc([S+](C)[O-])cc4C)n3C)ccc2c1 (centres undefined)
Data returned: True

Data request: // query: NC(=O)c1cc(-c2ccc(F)cc2)cc(-c2ccncc2)c1N
Data returned: False

Data request: // query: O=C1Nc2ccc(I)cc2C1=Cc1cc(Br)c(O)c(Br)c1
Data returned: False

Data request: // query: NC(=O)c1ccc(Oc2nccc(-c3c(-c4ccc(F)cc4)ncn3C3CCNCC3)n2)cc1
Data returned: True

Data request: // query: CCc1nccc2c1nc(-c1nonc1N)n2CC
Data returned: False

Data request: // query: O=C(Nc1n[nH]c2cc(-c3cc(F)ccc3F)ccc12)C1CC1
Data returned: False

Data request: // query: Fc1ccc(-c2ncn(C3CCNCC3)c2-c2ccnc(Oc3ccc(F)c(F)c3)n2)cc1
Data returned: False

Data request: // query: O=C(Nc1n[nH]c2nc(-c3ccco3)ccc12)C1CC1
Data returned: False

Data request: // query: O=C(Nc1n[nH]c2nc(-c3ccc(O)cc3)c(Br)cc12)C1CC1
Data returned: True

Data request: // query: Cc1ccc(NC(=O)c2ccoc2)cc1-c1ccc(C(=O)NCC2CC2)cc1
Data returned: False

Data request: // query: COc1cccc(/C=N/Nc2ncnc3c2cnn3-c2cccc(OC)c2)c1
Data returned: False

Data request: // query: Fc1ccc(-c2ncn(C3CCNCC3)c2-c2ccnc(Oc3ccc(Oc4ccccc4)cc3)n2)cc1
Data returned: True

Data request: // query: NC(=O)Cc1ccccc1Oc1nccc(-c2c(-c3ccc(F)cc3)ncn2C2CCNCC2)n1
Data returned: False

Data request: // query: CN(c1ccc(NC(=O)Nc2c(Cl)cccc2Cl)cc1)c1ccnc(Nc2cccc(CS(C)(=O)=O)c2)n1
Data returned: True

Data request: // query: Nc1nccc(-c2c(-c3ccc(F)cc3)ncn2C2CCC(O)CC2)n1 (centres undefined)
Data returned: True

###

- Experimental Target: Receptor tyrosine-protein kinase erbB-4 (Homo sapiens) (UniProt Q15303);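 further: values are averaged percent inhibition of ERBB4 kinase activity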
- Sequence (Q15303 whole entry): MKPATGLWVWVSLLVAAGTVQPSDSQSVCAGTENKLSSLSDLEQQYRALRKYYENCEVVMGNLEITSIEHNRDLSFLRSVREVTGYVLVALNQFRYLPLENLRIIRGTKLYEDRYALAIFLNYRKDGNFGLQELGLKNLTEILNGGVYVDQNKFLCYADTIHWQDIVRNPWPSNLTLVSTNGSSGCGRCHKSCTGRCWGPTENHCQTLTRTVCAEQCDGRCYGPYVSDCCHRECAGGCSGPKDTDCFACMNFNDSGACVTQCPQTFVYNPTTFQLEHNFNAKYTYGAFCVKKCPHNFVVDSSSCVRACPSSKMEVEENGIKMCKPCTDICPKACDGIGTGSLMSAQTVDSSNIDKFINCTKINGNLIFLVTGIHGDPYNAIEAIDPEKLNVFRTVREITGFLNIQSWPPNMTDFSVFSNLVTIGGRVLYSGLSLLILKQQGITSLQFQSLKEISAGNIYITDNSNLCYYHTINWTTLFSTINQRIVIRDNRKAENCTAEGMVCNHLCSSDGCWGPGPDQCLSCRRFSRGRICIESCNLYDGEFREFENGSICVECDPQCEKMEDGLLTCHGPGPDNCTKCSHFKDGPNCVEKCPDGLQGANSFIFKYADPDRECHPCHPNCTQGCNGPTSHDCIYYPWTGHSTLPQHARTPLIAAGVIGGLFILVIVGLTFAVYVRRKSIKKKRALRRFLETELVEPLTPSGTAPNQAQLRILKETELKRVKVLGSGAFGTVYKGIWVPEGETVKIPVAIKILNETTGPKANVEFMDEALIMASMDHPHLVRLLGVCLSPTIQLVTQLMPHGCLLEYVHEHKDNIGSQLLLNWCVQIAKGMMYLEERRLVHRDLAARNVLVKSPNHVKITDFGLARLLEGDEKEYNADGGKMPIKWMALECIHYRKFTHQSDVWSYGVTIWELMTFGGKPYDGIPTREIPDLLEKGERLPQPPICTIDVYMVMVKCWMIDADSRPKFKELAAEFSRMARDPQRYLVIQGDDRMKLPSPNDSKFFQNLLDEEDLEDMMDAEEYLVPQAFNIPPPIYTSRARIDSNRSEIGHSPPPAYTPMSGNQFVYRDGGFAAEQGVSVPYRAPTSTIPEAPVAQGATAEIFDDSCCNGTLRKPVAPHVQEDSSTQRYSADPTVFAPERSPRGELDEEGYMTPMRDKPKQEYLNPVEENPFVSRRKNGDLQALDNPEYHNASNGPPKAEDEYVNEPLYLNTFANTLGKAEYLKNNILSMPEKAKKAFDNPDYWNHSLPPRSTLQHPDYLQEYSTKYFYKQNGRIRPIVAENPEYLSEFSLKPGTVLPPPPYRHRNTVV
- Cond: at 0.1 µM
Please note: Met applies when inhibition is 4% or greater, and Not met applies otherwise.

The examples below pair each entry with its known result.
Data request: Can CCS(=O)(=O)c1ccc(OC)c(Nc2ncc(-c3ccccc3Cl)o2)c1 be said to have inhibition at or above 4%?
Data returned: Met

Data request: // query: CN1CCN(CCCNc2nc3ccc(Oc4ccc(NC(=O)Nc5cc(C(F)(F)F)ccc5F)cc4)cc3[nH]2)CC1
Data returned: Not met

Data request: // query: NS(=O)(=O)c1ccc(N/N=C2\C(=O)Nc3ccc(C(=O)NCCCn4ccnc4)cc32)cc1
Data returned: Met

Data request: // query: Cc1nnc(-c2ccc(C)c(-c3ccc(C(=O)NCc4ccc(Cl)cc4)cc3)c2)o1
Data returned: Not met

Data request: // query: C#Cc1cccc(Nc2ncnc3ccc(OCCCCNCCS(C)(=O)=O)cc23)c1
Data returned: Met

Data request: // query: CN(C)CCOc1ccc(-c2cc(-c3ccc4c(c3)CCC4=NO)c(-c3ccncc3)o2)cc1
Data returned: Not met

Others:
Data request: Can C[C@@H](Oc1cc(-n2cnc3ccc(OCC4CCN(C)CC4)cc32)sc1C(N)=O)c1ccccc1Cl be said to have inhibition at or above 4%?
Data returned: Met

Data request: // query: NS(=O)(=O)c1ccc(N/N=C2\C(=O)Nc3ccc(-c4cnco4)cc32)cc1
Data returned: Met

Data request: // query: COC(=O)Nc1nc2ccc(Sc3ccc(NC(=O)Nc4cc(C(F)(F)F)ccc4F)cc3)cc2[nH]1
Data returned: Not met

Data request: // query: COc1cccc(/C=N/Nc2ncnc3c2cnn3-c2cccc(OC)c2)c1
Data returned: Met

Data request: // query: CCc1nccc2c1nc(-c1nonc1N)n2CC
Data returned: Met

Data request: // query: Fc1ccc(-c2ncn(C3CCNCC3)c2-c2ccnc(Oc3ccc(F)c(F)c3)n2)cc1
Data returned: Not met

Data request: // query: O=C1Nc2ccccc2/C1=C/Nc1ccc(-n2cncn2)cc1
Data returned: Met

Data request: // query: O=C(Nc1n[nH]c2cc(-c3cc(F)ccc3F)ccc12)C1CC1
Data returned: Met

Data request: // query: COc1cc(Nc2ncc3c(C)nc(-c4cccc(Oc5ccccc5)c4)n3n2)cc(OC)c1OC
Data returned: Met

Data request: // query: O=C(Nc1n[nH]c2nc(-c3ccco3)ccc12)C1CC1
Data returned: Not met

Data request: // query: COc1ccc2cc(-c3c(-c4ccncc4)nc(-c4ccc([S+](C)[O-])cc4C)n3C)ccc2c1 (stereo not given)
Data returned: Met

Data request: // query: COc1cc2ncn(-c3cc(OCc4ccccc4C(F)(F)F)c(C(C)=O)s3)c2cc1OC
Data returned: Met

Data request: // query: Fc1ccc(-c2ncn(C3CCNCC3)c2-c2ccnc(Oc3ccc4c(c3)OCO4)n2)cc1
Data returned: Met

Data request: // query: COc1cc(Nc2ncc3c(C)nc(-c4cccc(C(F)(F)F)c4)n3n2)cc(OC)c1OC
Data returned: Met

###

Each record here notes measured inhibition.
- Experimental Target: Casein kinase I isoform alpha (Homo sapiens) (UniProt P48729)
- Sequence (P48729 2-337 limits assumed): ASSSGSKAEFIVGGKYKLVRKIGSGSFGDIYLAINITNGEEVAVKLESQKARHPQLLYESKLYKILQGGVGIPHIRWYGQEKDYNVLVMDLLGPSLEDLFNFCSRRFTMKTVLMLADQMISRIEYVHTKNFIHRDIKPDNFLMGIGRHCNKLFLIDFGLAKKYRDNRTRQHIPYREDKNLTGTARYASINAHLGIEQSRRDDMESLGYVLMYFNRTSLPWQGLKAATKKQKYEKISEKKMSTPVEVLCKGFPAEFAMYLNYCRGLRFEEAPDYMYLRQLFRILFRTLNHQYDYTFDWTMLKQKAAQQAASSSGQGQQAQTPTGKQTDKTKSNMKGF
- Cond: at 1 µM
Value expressed in %; do not type the unit.

Data request: // map CCS(=O)(=O)c1ccc(OC)c(Nc2ncc(-c3cccc(-c4ccccc4F)c3)o2)c1 to recorded inhibition (system: Casein kinase I isoform alpha (Homo sapiens) (UniProt P48729));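 further: each value is a mean percent inhibition of the kinase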
Data returned: 4.53

Data request: // query: COc1cc2ncn(-c3cc(OCc4cccs4)c(C(N)=O)s3)c2cc1OC
Data returned: 3.36

Data request: // query: NCc1ccc(-n2c(-c3nonc3N)nc3cnccc32)cc1
Data returned: 9.76

Data request: // query: NS(=O)(=O)c1ccc(Nc2cc(-c3ccc(O)c(F)c3)n[nH]2)cc1
Data returned: 4.49

Data request: // query: Fc1ccc(-c2ncn(C3CCNCC3)c2-c2ccnc(Oc3ccc4c(c3)OCO4)n2)cc1
Data returned: 31

Data request: // query: NC(=O)c1ccc(Oc2nccc(-c3c(-c4ccc(F)cc4)ncn3C3CCNCC3)n2)cc1
Data returned: 30.3

Data request: // query: COc1cc(Nc2ncc(-c3ccccc3)o2)cc(OC)c1OC
Data returned: 1.29

Data request: // query: COc1cccc(-n2cnc3c(N/N=C/c4ccncc4)ncnc32)c1
Data returned: 0.8

Data request: // query: COc1ccc(-c2ccc3c(NC(=O)C4CC4)n[nH]c3n2)cc1
Data returned: 0.42

Data request: // query: O=C(Nc1ccc(Oc2ccc3[nH]c(NC(=O)c4ccccc4)nc3c2)cc1)Nc1cc(C(F)(F)F)ccc1F
Data returned: 3.79

Data request: // query: COc1cc(Nc2ncc3c(C)nc(-c4cccc(Oc5ccccc5)c4)n3n2)cc(OC)c1OC
Data returned: 3.63
